Measured viability, T/C values are reported for all entries that follow.
System: 873145-292-R-J1-PDC complex spheroid viability
Assay: Anticancer human tumor 873145-292-R-J1-PDC patient-derived renal clear cell carcinoma cell line growth inhibition [POLQ]
Conditions: second compound 1 µM; first compound 0.001 µM; stronger effect = lower value
Protocol: Multicellular complex tumor spheroid response to Polymerase (POL) inhibitors (novobiocin, ART-558, RP6685) in combination with a variety of drugs and investigational agents in selected tumor cell lines The POL inhibitors (novobiocin, ART-558, and RP6685) were evaluated both individually and in combination with standard of care and investigational anticancer small molecules within a complex spheroid model of solid tumors. . […]
Dear colleague, please return just the value in %, with no unit written.

Reference set (3 entries):
Cn1ncnc1[C@H]1c2n[nH]c(=O)c3cc(F)cc(c23)N[C@@H]1c1ccc(F)cc1 + COC1C(OC(N)=O)C(O)C(Oc2ccc3c(O)c(NC(=O)c4ccc(O)c(CC=C(C)C)c4)c(=O)oc3c2C)OC1(C)C = 99.3
CC[C@@]1(O)C(=O)OCc2c1cc1n(c2=O)Cc2cc3c(CN(C)C)c(O)ccc3nc2-1 + Nc1ccc(C#CCN(C(=O)Cc2ncc(C(F)(F)F)cc2C(F)(F)F)c2ccc(F)cc2)nn1 = 99.2
Cn1ncnc1[C@H]1c2n[nH]c(=O)c3cc(F)cc(c23)N[C@@H]1c1ccc(F)cc1 + Cc1cccc(N(C)C(=O)C2C(O)CCN2c2nc(C)cc(C(F)(F)F)c2C#N)c1 = 95.2

# viability, T/C lookup, item CC[C@@]1(O)C(=O)OCc2c1cc1n(c2=O)Cc2cc3c(CN(C)C)c(O)ccc3nc2-1 + COC1C(OC(N)=O)C(O)C(Oc2ccc3c(O)c(NC(=O)c4ccc(O)c(CC=C(C)C)c4)c(=O)oc3c2C)OC1(C)C
95.3

# viability, T/C lookup, item CC[C@@]1(O)C(=O)OCc2c1cc1n(c2=O)Cc2cc3c(CN(C)C)c(O)ccc3nc2-1 + Cc1cccc(N(C)C(=O)C2C(O)CCN2c2nc(C)cc(C(F)(F)F)c2C#N)c1
98.9

# viability, T/C lookup, item Cn1ncnc1[C@H]1c2n[nH]c(=O)c3cc(F)cc(c23)N[C@@H]1c1ccc(F)cc1 + Nc1ccc(C#CCN(C(=O)Cc2ncc(C(F)(F)F)cc2C(F)(F)F)c2ccc(F)cc2)nn1
100

---

Measured pIC50 values are reported for all entries that follow.
System: 873145-292-R-J1-PDC complex spheroid viability
Assay: Anticancer human tumor 873145-292-R-J1-PDC cell line growth inhibition [POLQ];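 note: spheroids exposed to compounds for 7 days before viability readout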
Settings: curve of first compound; second compound 0.1 µM
pIC50: −log10 of the molar value.

Reference set (2 entries):
CCc1c2c(nc3ccc(O)cc13)-c1cc3c(c(=O)n1C2)COC(=O)[C@]3(O)CC + COC1C(OC(N)=O)C(O)C(Oc2ccc3c(O)c(NC(=O)c4ccc(O)c(CC=C(C)C)c4)c(=O)oc3c2C)OC1(C)C = 7.20
O=C(c1cc(Cc2n[nH]c(=O)c3ccccc23)ccc1F)N1CCN(C(=O)C2CC2)CC1 + Nc1ccc(C#CCN(C(=O)Cc2ncc(C(F)(F)F)cc2C(F)(F)F)c2ccc(F)cc2)nn1 = < 5.00

# pIC50 lookup, item CC(=O)O[C@H]1C(=O)[C@@]2(C)[C@H]([C@H](OC(=O)c3ccccc3)[C@]3(O)C[C@H](OC(=O)[C@H](O)[C@@H](NC(=O)c4ccccc4)c4ccccc4)C(C)=C1C3(C)C)[C@]1(OC(C)=O)CO[C@@H]1C[C@@H]2O + COC1C(OC(N)=O)C(O)C(Oc2ccc3c(O)c(NC(=O)c4ccc(O)c(CC=C(C)C)c4)c(=O)oc3c2C)OC1(C)C
< 5.52

# pIC50 lookup, item COc1cccc(OCCCN)c1-c1cc(Nc2cnc(C#N)cn2)n[nH]1 + COC1C(OC(N)=O)C(O)C(Oc2ccc3c(O)c(NC(=O)c4ccc(O)c(CC=C(C)C)c4)c(=O)oc3c2C)OC1(C)C
< 6.00

# pIC50 lookup, item COc1cccc2c1C(=O)c1c(O)c3c(c(O)c1C2=O)CC(O)(C(=O)CO)CC3OC1CC(N)C(O)C(C)O1 (stereo not given) + Nc1ccc(C#CCN(C(=O)Cc2ncc(C(F)(F)F)cc2C(F)(F)F)c2ccc(F)cc2)nn1
5.79

---

System: 873145-292-R-J1-PDC complex spheroid viability
Test: Anticancer human tumor 873145-292-R-J1-PDC cell line growth inhibition [POLQ];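 note: spheroids exposed to compounds for 7 days before viability readout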;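 for viability, T/C: luminescence signal used as surrogate for viable cell content; 100% = DMSO vehicle control viability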
Conditions: second compound 10 µM; first compound 0.000316 µM; stronger effect = lower value
Measured viability, T/C values are reported for all entries that follow.
Dear colleague, please return just the value in %, with no unit written.

Reference set (4 entries):
Cn1ncnc1[C@H]1c2n[nH]c(=O)c3cc(F)cc(c23)N[C@@H]1c1ccc(F)cc1 + Nc1ccc(C#CCN(C(=O)Cc2ncc(C(F)(F)F)cc2C(F)(F)F)c2ccc(F)cc2)nn1 = 107
CC[C@@]1(O)C(=O)OCc2c1cc1n(c2=O)Cc2cc3c(CN(C)C)c(O)ccc3nc2-1 + Cc1cccc(N(C)C(=O)C2C(O)CCN2c2nc(C)cc(C(F)(F)F)c2C#N)c1 = 93.4
CC[C@@]1(O)C(=O)OCc2c1cc1n(c2=O)Cc2cc3c(CN(C)C)c(O)ccc3nc2-1 + Nc1ccc(C#CCN(C(=O)Cc2ncc(C(F)(F)F)cc2C(F)(F)F)c2ccc(F)cc2)nn1 = 109
Cn1ncnc1[C@H]1c2n[nH]c(=O)c3cc(F)cc(c23)N[C@@H]1c1ccc(F)cc1 + COC1C(OC(N)=O)C(O)C(Oc2ccc3c(O)c(NC(=O)c4ccc(O)c(CC=C(C)C)c4)c(=O)oc3c2C)OC1(C)C = 98.9

# viability, T/C lookup, item Cn1ncnc1[C@H]1c2n[nH]c(=O)c3cc(F)cc(c23)N[C@@H]1c1ccc(F)cc1 + Cc1cccc(N(C)C(=O)C2C(O)CCN2c2nc(C)cc(C(F)(F)F)c2C#N)c1
103

# viability, T/C lookup, item CC[C@@]1(O)C(=O)OCc2c1cc1n(c2=O)Cc2cc3c(CN(C)C)c(O)ccc3nc2-1 + COC1C(OC(N)=O)C(O)C(Oc2ccc3c(O)c(NC(=O)c4ccc(O)c(CC=C(C)C)c4)c(=O)oc3c2C)OC1(C)C
104

---

Tested on: 873145-292-R-J1-PDC complex spheroid viability
Assay: Anticancer human tumor 873145-292-R-J1-PDC cell line growth inhibition [POLQ];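 note: spheroids exposed to compounds for 7 days before viability readout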;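 for viability, T/C: luminescence signal used as surrogate for viable cell content; 100% = DMSO vehicle control viability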
Details: second compound 10 µM; first compound 3.16 µM; stronger effect = lower value
Experimental: Multicellular complex tumor spheroid response to Polymerase (POL) inhibitors (novobiocin, ART-558, RP6685) in combination with a variety of drugs and investigational agents in selected tumor cell lines The POL inhibitors (novobiocin, ART-558, and RP6685) were evaluated both individually and in combination with standard of care and investigational anticancer small molecules within a complex spheroid model of solid tumors. . […]
ENDPOINT LABEL: viability, T/C (%)
Dear colleague, please return just the value in %, with no unit written.

Reference set (4 entries):
CC1COCCN1c1cc(C2(S(C)(=N)=O)CC2)nc(-c2ccnc3[nH]ccc23)n1 (stereo not given) + COC1C(OC(N)=O)C(O)C(Oc2ccc3c(O)c(NC(=O)c4ccc(O)c(CC=C(C)C)c4)c(=O)oc3c2C)OC1(C)C = 74.8
Nc1ccn(C2OC(CO)C(O)C2(F)F)c(=O)n1 (stereo not given) + COC1C(OC(N)=O)C(O)C(Oc2ccc3c(O)c(NC(=O)c4ccc(O)c(CC=C(C)C)c4)c(=O)oc3c2C)OC1(C)C = 53.6
O=C(c1cc(Cc2n[nH]c(=O)c3ccccc23)ccc1F)N1CCN(C(=O)C2CC2)CC1 + Nc1ccc(C#CCN(C(=O)Cc2ncc(C(F)(F)F)cc2C(F)(F)F)c2ccc(F)cc2)nn1 = 100
O=C(c1cc(Cc2n[nH]c(=O)c3ccccc23)ccc1F)N1CCN(C(=O)C2CC2)CC1 + COC1C(OC(N)=O)C(O)C(Oc2ccc3c(O)c(NC(=O)c4ccc(O)c(CC=C(C)C)c4)c(=O)oc3c2C)OC1(C)C = 107

# viability, T/C lookup, item CC(C)n1c(=O)n(C)c2cnc3cc(F)c(-c4ccc(OCCCN5CCCCC5)nc4)cc3c21 + COC1C(OC(N)=O)C(O)C(Oc2ccc3c(O)c(NC(=O)c4ccc(O)c(CC=C(C)C)c4)c(=O)oc3c2C)OC1(C)C
107

---

Tested on: 873145-292-R-J1-PDC complex spheroid viability
Assay: Anticancer human tumor 873145-292-R-J1-PDC cell line growth inhibition [POLQ];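 note: spheroids exposed to compounds for 7 days before viability readout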
Conditions: curve of first compound; second compound 0.1 µM
pIC50: −log10 of the molar value.
ENDPOINT LABEL: pIC50

CCCS(=O)(=O)Nc1ccc(F)c(C(=O)c2c[nH]c3ncc(-c4ccc(Cl)cc4)cc23)c1F + COC1C(OC(N)=O)C(O)C(Oc2ccc3c(O)c(NC(=O)c4ccc(O)c(CC=C(C)C)c4)c(=O)oc3c2C)OC1(C)C = < 5.00
CC(=O)O[C@H]1C(=O)[C@@]2(C)[C@H]([C@H](OC(=O)c3ccccc3)[C@]3(O)C[C@H](OC(=O)[C@H](O)[C@@H](NC(=O)c4ccccc4)c4ccccc4)C(C)=C1C3(C)C)[C@]1(OC(C)=O)CO[C@@H]1C[C@@H]2O + Nc1ccc(C#CCN(C(=O)Cc2ncc(C(F)(F)F)cc2C(F)(F)F)c2ccc(F)cc2)nn1 = < 5.52
COc1cc2cc(C(=O)CCC(=O)O)sc2cc1OC + COC1C(OC(N)=O)C(O)C(Oc2ccc3c(O)c(NC(=O)c4ccc(O)c(CC=C(C)C)c4)c(=O)oc3c2C)OC1(C)C = < 5.00

# pIC50 lookup, item Cn1ncnc1[C@H]1c2n[nH]c(=O)c3cc(F)cc(c23)N[C@@H]1c1ccc(F)cc1 + COC1C(OC(N)=O)C(O)C(Oc2ccc3c(O)c(NC(=O)c4ccc(O)c(CC=C(C)C)c4)c(=O)oc3c2C)OC1(C)C
< 7.00
